All values here come from patent US20250171437A1.

Molecular target: human PAH with the R408W mutation (A375 R408W cells) (Homo sapiens, UniProt P00439, R408W)
Construct: expressed in transfected cells
Sequence (P00439 1-452 R408W): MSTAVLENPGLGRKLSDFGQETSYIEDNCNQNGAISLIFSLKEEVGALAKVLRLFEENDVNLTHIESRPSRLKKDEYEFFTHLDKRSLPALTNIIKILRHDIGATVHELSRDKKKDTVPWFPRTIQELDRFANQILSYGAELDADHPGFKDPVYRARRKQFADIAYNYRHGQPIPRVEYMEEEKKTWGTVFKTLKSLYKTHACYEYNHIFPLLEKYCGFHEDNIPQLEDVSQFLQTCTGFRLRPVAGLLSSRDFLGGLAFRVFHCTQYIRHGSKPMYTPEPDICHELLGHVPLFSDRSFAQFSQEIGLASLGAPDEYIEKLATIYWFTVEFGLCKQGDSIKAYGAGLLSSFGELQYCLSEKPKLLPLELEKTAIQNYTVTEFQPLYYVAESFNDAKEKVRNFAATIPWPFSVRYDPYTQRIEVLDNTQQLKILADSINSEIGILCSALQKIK
Test: Cell Based Phenylalanine Flux Assay
Conditions: A375 R408W cells; 24 hrs with compound, then 20 μM sepiapterin and 800 μM 13C9,15N-Phenylalanine for 4 hours; 13C-Tyrosine by LC-MS; average where tested multiple times
MEASUREMENT NAME: AC50

{"SMILES DATA": "O=C(c1ocnc1C(F)F)N1CCc2[nH]cnc2[C@H]1c1nc2c(F)ccc(F)c2o1", "TARGET DESC": "human PAH with the R408W mutation (A375 R408W cells) (Homo sapiens, UniProt P00439, R408W)", "AC50": "≤ 500 nM"}

# returns recorded AC50 (system: human PAH with the R408W mutation (A375 R408W cells) (Homo sapiens, UniProt P00439, R408W)) for "CC(C)(O)c1nc(C(F)F)c(C(=O)N2CCc3[nH]cnc3[C@H]2c2nc3c(Br)cccc3o2)o1"
≤ 500 nM

Another compound: "CN1CCN(c2ccc3c(C(=O)N4CCc5[nH]cnc5[C@H]4c4nc5cccc(F)c5o4)cnn3c2)CC1"
≤ 500 nM

----------
Molecular target: human PAH with the R408W mutation (A375 R408W cells) (Homo sapiens, UniProt P00439, R408W)
Construct: expressed in transfected cells
Sequence (P00439 1-452 R408W): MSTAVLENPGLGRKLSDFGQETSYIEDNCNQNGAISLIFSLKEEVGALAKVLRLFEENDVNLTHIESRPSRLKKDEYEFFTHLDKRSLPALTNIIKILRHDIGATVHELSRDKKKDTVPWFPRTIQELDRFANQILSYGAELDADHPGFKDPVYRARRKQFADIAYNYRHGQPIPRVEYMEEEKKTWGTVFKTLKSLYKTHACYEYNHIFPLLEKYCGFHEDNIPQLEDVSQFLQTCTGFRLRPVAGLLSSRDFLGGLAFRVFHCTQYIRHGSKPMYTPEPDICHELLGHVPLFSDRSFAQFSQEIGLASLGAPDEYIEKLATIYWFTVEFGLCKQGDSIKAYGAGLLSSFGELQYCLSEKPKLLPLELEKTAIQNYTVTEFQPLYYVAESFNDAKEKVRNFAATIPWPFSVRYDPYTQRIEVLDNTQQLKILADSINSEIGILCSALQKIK
Assay: Cell Based Phenylalanine Flux Assay
Details: A375 R408W cells; 24 hrs with compound, then 20 μM sepiapterin and 800 μM 13C9,15N-Phenylalanine for 4 hours; 13C-Tyrosine by LC-MS; average where tested multiple times
The reader will find reported AC50 values listed item by item below.

Example results:
{"SMILES DATA": "CC(C)(C)c1ncc(C(=O)N2CCc3[nH]cnc3[C@H]2c2nc3cc(F)ccc3o2)s1", "AC50": "≤ 0.5 µM"}
{"SMILES DATA": "O=C(c1oc(-c2ccc(F)cn2)nc1C(F)F)N1CCc2[nH]cnc2[C@H]1c1nc2cccc(F)c2o1", "AC50": "≤ 0.5 µM"}
{"SMILES DATA": "O=C(c1ccnn1C(F)F)N1CCc2[nH]cnc2[C@@H]1c1nc2ccc(F)c(F)c2o1", "AC50": "1 to 5 µM"}
{"SMILES DATA": "Cn1cc(-c2ccc3c(C(=O)N4CCc5[nH]cnc5[C@H]4c4nc5cc(F)ccc5o4)cnn3c2)cn1", "AC50": "0.5 to 1 µM"}
{"SMILES DATA": "Cc1cc(F)c2oc([C@@H]3c4nc[nH]c4CCN3C(=O)c3oc(C(C)(C)O)nc3C(F)F)nc2c1", "AC50": "≤ 0.5 µM"}

Given the compound "O=C(c1cnc(-c2ccccn2)s1)N1CCc2[nH]cnc2[C@H]1c1nc2cc(F)ccc2o1" , what is its reported AC50?
≤ 0.5 µM

Another compound to check: "O=C(c1cnn2cc(N3CCN(C4CC4)CC3)ccc12)N1CCc2[nH]cnc2[C@H]1c1nc2cc(F)ccc2o1"
0.5 to 1 µM

Same read-out for "O=C(c1nnc(-c2ccc(OC(F)(F)F)cn2)o1)N1CCc2[nH]cnc2[C@H]1c1nc2cc(F)ccc2o1" ?
1 to 5 µM
